Provide the reported melting point of each item.

Example entries and their recorded answers appear below.
{"Compound": "O=S(=O)(c1ccc(F)cc1)n1cc(C(O)CN2CCN(c3ncccn3)CC2)c2ccccc21 (stereo not shown)", "melting point": "72 to 73 °C"}
{"Compound": "O=C(CN1CCN(c2ncccn2)CC1)c1cn(S(=O)(=O)c2ccc(I)cc2)c2ccccc12", "melting point": "184 to 185 °C"}

Below is a list of compounds. For each, state its recorded melting point.
1. O=C(CN1CCN(c2ccccn2)CC1)c1cn(S(=O)(=O)c2cccc3ccccc23)c2ccccc12
2. COc1ccccc1N1CCN(CC(=O)c2cn(S(=O)(=O)c3cccc4ccccc34)c3ccccc23)CC1

["76 to 77 °C", "74 to 75 °C"]
